The values you see were collected from patent US20250101120A1.

# assayed system: T1, hFc-hFasL (fusion protein of human Fc fragment and human FasL extracellular region) (human, UniProt P48023 134-281)
# T1 construct: the order here follows the name hFc-hFasL; also called hFc-FasL; hFc-hFasL antigen; not shown: human Fc fragment tag
# T1 sequence: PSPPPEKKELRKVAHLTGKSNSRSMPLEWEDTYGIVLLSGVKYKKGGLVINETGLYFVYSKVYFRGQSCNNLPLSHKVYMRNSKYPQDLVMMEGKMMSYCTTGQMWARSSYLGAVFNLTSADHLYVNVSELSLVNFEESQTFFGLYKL
# method summary: ELISA, hFc-hFasL coated, antibody titrated, anti-human kappa-HRP (protocol of Example 3.2)
quantity measured: pEC50
By convention, pEC50 is the negative base-10 log of a molar concentration.

>>> measured_value("humFL-M88-7 (antibody, human IgG4, V domains shown, Humanized FL-M88) VH: QVQLVQSGAEVKKPGASVKVSCKGSGYTFTDYTIHWVRQAPGQGLEWIGVISTYQGDASYNQKFKGRATMTVDKSTSTAYMELSSLRSEDTAVYYCARFPDWDYAMDYWGQGTLVTVSS VL: EIVMTQSPATLSVSPGERATLSCKASQSVDYDGDSYMNWYQQKPGQAPRLLIYAASNLESGIPARFSGSGSGTEFTLTISSLQSEDFAVYYCQHSRELPYTFGQGTKLEIK")
9.47

Now consider a different binder.
## Task Consider the binder humFL-M88-13 (antibody, human IgG4, V domains shown, Humanized FL-M88) VH: QVQLVQSGAEVKKPGASVKVSCKGSGYTFTDYTIHWVRQAPGQGLEWIGVISTYQGDASYNQKFKGRATMTVDKSTSTAYMELSSLRSEDTAVYYCARFPDWDYAMDYWGQGTLVTVSS VL: EIVMTQSPATLSVSPGERATLSCKASQSVDYDGDSYMNWYQQKPGQPPRLLIYAASNLESGIPARFSGSGSGTEFTLTISSLQSEDFAVYYCQQSRELPYTFGQGTKLEIK and give its measured pEC50.
## Result 9.52
